Tested on: TK-10 renal
Assay: NCI tumour cell line growth inhibition, 48 h
Here, each record is paired with measured TGI data.
Numeric only. Scale: µM

In the examples that follow, each entry is paired with its recorded TGI.
# COMPOUND, ASSAY SYSTEM, UNIT OF MEASURE, TGI
records = [
    ("S=C(Nc1cccc(C2(N3CCCCC3)CCCCC2)c1)Nc1cccc(C2(N3CCCCC3)CCCCC2)c1", "TK-10 renal", "µM", 7.39),
    ("COc1ccc2c(c1OC)C(=O)O[C@@H]2[C@H]1c2c(c(Br)c3c(c2OC)OCO3)CCN1C", "TK-10 renal", "µM", 94.5),
    ("CCOC(=O)c1ccc(Nc2cnc3ccc(C(F)(F)F)cc3n2)cc1", "TK-10 renal", "µM", 26.9),
    ("CC/C(=C\\c1ccc(Cl)c(Cl)c1)[N+](=O)[O-]", "TK-10 renal", "µM", 4.04),
    ("CCCC(CCC)C(=O)OCC1(CO)C/C(=C\\c2ccc(C(F)(F)F)cc2)C(=O)O1 (stereo not drawn)", "TK-10 renal", "µM", 20.3),
]

# input // Input: CC(=O)/C(=C(/Br)I)c1ccccc1 . Output its TGI only.
# output 36.3

# input // Input: Cc1ccc(-n2cc(-c3ccc(Cl)cc3)c3c2N=CN2NC(c4cccs4)=NC32)cc1 (stereo not drawn) . Output its TGI only.
# output 27.9
